assay: Phase 1 clinical study in healthy subjects: plasma pharmacokinetics and food effect; format: in vivo, human; settings: human, plasma, oral, 300 mg, similar after single and multiple dosing, 300 mg; read-out: Mean terminal half-life (converted)
quantity.measured: half-life

*Q* Please look up its half-life: O=C(Cc1ccc(F)cc1)Nn1c(C2CC2)nc2cc(F)ccc2c1=O [PF‐04895162]
*A* ~8 h

* * *

Test: Phase 1 clinical study in healthy subjects: plasma pharmacokinetics and food effect
Assay type: in vivo, human
Details: human, plasma, oral, 300 mg, Period 3, 300 mg BID fasted, Day 14 (N = 7); geometric mean (%CV)
Protocol: A randomized, double‐blind, third‐party open (i.e., subject and Investigator blind, and Sponsor open), placebo‐controlled study was conducted in healthy subjects to investigate the safety, tolerability, and pharmacokinetics of single and multiple oral doses of PF‐04895162 and to characterize the effect of food on the pharmacokinetics of a single oral dose of PF‐04895162. […]
quantity.measured: Cmax at 14 day (ng/mL)
Numeric only. Scale: ng/mL

*Q* Can you look up the measured Cmax at 14 day of `O=C(Cc1ccc(F)cc1)Nn1c(C2CC2)nc2cc(F)ccc2c1=O` for me?
*A* 8380
